- measured-on: Ubiquitin carboxyl-terminal hydrolase 8 (Homo sapiens)
- assay-summary: Ubiquitin-specific protease 8 inhibitors, concentration-effect, biochemical, validation of initial actives (AID 1645862);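 note: potency reflects inhibition of USP8 cleavage of a ubiquitin rhodamine substrate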
- reported-conditions: recombinant USP8 deubiquitinase activity assay
Active and inactive are the calls of the source. The rule behind the calls is not given here.
Please state which outcome applies, choosing from class 1 for active, class 0 for inactive

Inquiry: # outcome recorded in this test, key = Cc1ccc(C)c(NC(=O)Cn2cc(C(=O)C3CC3)c3ccccc32)c1
Reply text: class 1

Inquiry: # outcome recorded in this test, key = NC(=O)C[C@H](NC(=O)[C@H](Cc1ccccc1)n1c(=O)[nH]c2ccccc2c1=O)C(=O)N[C@@H](Cc1ccccc1)C(=O)O
Reply text: class 0

Inquiry: # outcome recorded in this test, key = Cc1ccc(CNCc2cc3c(-c4ccc(F)cc4)nn(-c4ccccc4)c3[nH]c2=O)cc1
Reply text: class 0

Inquiry: # outcome recorded in this test, key = COc1ccccc1-c1nc(-c2cn(-c3ccc(F)cc3)nn2)no1
Reply text: class 1

Inquiry: # outcome recorded in this test, key = CC(NC(=O)c1ccccc1)c1nc2ccccc2n1CC(=O)Nc1ccc(OC(F)(F)F)cc1 (configuration not stated)
Reply text: class 0

Inquiry: # outcome recorded in this test, key = Cc1nc2c(c(C)c1CCC(=O)Nc1ccccc1F)c(=O)n(C)c(=O)n2C
Reply text: class 0

Inquiry: # outcome recorded in this test, key = Cc1ccc(NC(=O)c2ccc3nn(CC(=O)Nc4ccc(F)cc4F)c(=O)n3c2)cc1
Reply text: class 0
